experiment: Solubility by European Pharmacopeia (EP) express method; type: physicochemical; conditions: thermodynamic from solid; water solubility, ambient conditions, European Pharmacopeia 10.0
What solubility was measured for each of the following?

get_value(item= O=C1c2c(O)cc(O)cc2O[C@H](c2ccc(O)c(O)c2)[C@H]1O [DHQA] , readout=solubility) returns 1000 to 10000 µg/mL

get_value(item= O=C1c2c(O)cc(O)cc2OC(c2ccc(O)c(O)c2)C1O (centres unmarked) [DHQR, reference compound] , readout=solubility) returns 100 to 1000 µg/mL
